Tested on: 323965-272-R-J2-PDC complex spheroid growth, % test/control
ASSAY: Anticancer human tumor 323965-272-R-J2-PDC patient-derived pancreatic carcinoma cell line growth inhibition [Asc]
MEASUREMENT CONDITIONS: second compound 0.1 µM; first compound 0.949 µM; active compounds read low
MEASUREMENT TYPE: viability, T/C

Examples with answers:
{"COMPOUND": "CCN1C(C(=O)NC23CCC(C(=O)O)(CC2)CC3)C(c2cccc(Cl)c2F)C2(C(=O)Nc3cc(Cl)ccc32)C12CCCCC2 (centres undefined) + Cc1c(S(C)(=O)=O)c(-c2cc(F)cc(N3CCN(c4ccc(NS(=O)(=O)c5ccc(NC(CCN6CCC(C(=O)OCCCP(=O)(O)O)CC6)CSc6ccccc6)c(S(=O)(=O)C(F)(F)F)c5)cc4)CC3)c2)c(-c2ccc(Cl)cc2)n1C(C)C", "MEASUREMENT TYPE": "viability, T/C", "RESULT": "88.4%"}
{"COMPOUND": "Cc1nc(N2CCC3(CC2)COC(C)C3N)c(CO)nc1Sc1ccnc(N)c1Cl (centres undefined) + CNC(C)C(=O)NC1CN(S(=O)(=O)c2cccc(S(=O)(=O)N3CCC4CCC(C(=O)NC(c5ccccc5)c5ccccc5)N4C(=O)C(NC(=O)C(C)NC)C3)c2)CCC2CCC(C(=O)NC(c3ccccc3)c3ccccc3)N2C1=O", "MEASUREMENT TYPE": "viability, T/C", "RESULT": "51.2%"}
{"COMPOUND": "Cc1nc(N2CCC3(CC2)COC(C)C3N)c(CO)nc1Sc1ccnc(N)c1Cl (centres undefined) + Cc1c(S(C)(=O)=O)c(-c2cc(F)cc(N3CCN(c4ccc(NS(=O)(=O)c5ccc(NC(CCN6CCC(C(=O)OCCCP(=O)(O)O)CC6)CSc6ccccc6)c(S(=O)(=O)C(F)(F)F)c5)cc4)CC3)c2)c(-c2ccc(Cl)cc2)n1C(C)C", "MEASUREMENT TYPE": "viability, T/C", "RESULT": "49.1%"}

Read the next record carefully.
Incoming: Identify viability, T/C associated with the compound CCN1C(C(=O)NC23CCC(C(=O)O)(CC2)CC3)C(c2cccc(Cl)c2F)C2(C(=O)Nc3cc(Cl)ccc32)C12CCCCC2 (centres undefined) + CNC(C)C(=O)NC1CN(S(=O)(=O)c2cccc(S(=O)(=O)N3CCC4CCC(C(=O)NC(c5ccccc5)c5ccccc5)N4C(=O)C(NC(=O)C(C)NC)C3)c2)CCC2CCC(C(=O)NC(c3ccccc3)c3ccccc3)N2C1=O
Outgoing: 87.5%

----------
Test system: 323965-272-R-J2-PDC complex spheroid growth, % test/control
ASSAY: Anticancer human tumor 323965-272-R-J2-PDC cell line growth inhibition [Asc];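 also: compound exposure lasted 7 days starting three days after spheroid seeding; 100% = DMSO vehicle control wells with viability set relative to vehicle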
MEASUREMENT CONDITIONS: second compound 10 µM; first compound 0.1 µM; active compounds read low
MEASUREMENT TYPE: viability, T/C (%)
Give bare numbers, in %.

{"COMPOUND": "O=C(c1cc(Cc2n[nH]c(=O)c3ccccc23)ccc1F)N1CCN(C(=O)C2CC2)CC1 + Cc1c(S(C)(=O)=O)c(-c2cc(F)cc(N3CCN(c4ccc(NS(=O)(=O)c5ccc(NC(CCN6CCC(C(=O)OCCCP(=O)(O)O)CC6)CSc6ccccc6)c(S(=O)(=O)C(F)(F)F)c5)cc4)CC3)c2)c(-c2ccc(Cl)cc2)n1C(C)C", "viability, T/C, %": 75.2}
{"COMPOUND": "C=C(F)C(=O)N1CCN(c2nc(OCC3CCCN3C)nc3c2CCN(c2cccc4cccc(Cl)c24)C3)CC1CC#N (stereo not given) + Cc1c(S(C)(=O)=O)c(-c2cc(F)cc(N3CCN(c4ccc(NS(=O)(=O)c5ccc(NC(CCN6CCC(C(=O)OCCCP(=O)(O)O)CC6)CSc6ccccc6)c(S(=O)(=O)C(F)(F)F)c5)cc4)CC3)c2)c(-c2ccc(Cl)cc2)n1C(C)C", "viability, T/C, %": 43.5}
{"COMPOUND": "O=C(c1ccc(F)c(F)c1Nc1ccc(I)cc1F)N1CC(O)([C@@H]2CCCCN2)C1 + Cc1c(S(C)(=O)=O)c(-c2cc(F)cc(N3CCN(c4ccc(NS(=O)(=O)c5ccc(NC(CCN6CCC(C(=O)OCCCP(=O)(O)O)CC6)CSc6ccccc6)c(S(=O)(=O)C(F)(F)F)c5)cc4)CC3)c2)c(-c2ccc(Cl)cc2)n1C(C)C", "viability, T/C, %": 22.3}

// each listed compound needs a value for viability, T/C
1. COc1c(OCCCN2CCOCC2)ccc2c3n(c(=NC(=O)c4cnc(N)nc4)nc12)CCN3 + Cc1c(S(C)(=O)=O)c(-c2cc(F)cc(N3CCN(c4ccc(NS(=O)(=O)c5ccc(NC(CCN6CCC(C(=O)OCCCP(=O)(O)O)CC6)CSc6ccccc6)c(S(=O)(=O)C(F)(F)F)c5)cc4)CC3)c2)c(-c2ccc(Cl)cc2)n1C(C)C
2. NC1CCC(NC2CC2c2ccccc2)CC1 (stereo not given) + Cc1c(S(C)(=O)=O)c(-c2cc(F)cc(N3CCN(c4ccc(NS(=O)(=O)c5ccc(NC(CCN6CCC(C(=O)OCCCP(=O)(O)O)CC6)CSc6ccccc6)c(S(=O)(=O)C(F)(F)F)c5)cc4)CC3)c2)c(-c2ccc(Cl)cc2)n1C(C)C
3. Cn1ncnc1[C@H]1c2n[nH]c(=O)c3cc(F)cc(c23)N[C@@H]1c1ccc(F)cc1 + Cc1c(S(C)(=O)=O)c(-c2cc(F)cc(N3CCN(c4ccc(NS(=O)(=O)c5ccc(NC(CCN6CCC(C(=O)OCCCP(=O)(O)O)CC6)CSc6ccccc6)c(S(=O)(=O)C(F)(F)F)c5)cc4)CC3)c2)c(-c2ccc(Cl)cc2)n1C(C)C
4. CNC(C)C(=O)NC1CN(S(=O)(=O)c2cccc(S(=O)(=O)N3CCC4CCC(C(=O)NC(c5ccccc5)c5ccccc5)N4C(=O)C(NC(=O)C(C)NC)C3)c2)CCC2CCC(C(=O)NC(c3ccccc3)c3ccccc3)N2C1=O (stereo not given) + Cc1c(S(C)(=O)=O)c(-c2cc(F)cc(N3CCN(c4ccc(NS(=O)(=O)c5ccc(NC(CCN6CCC(C(=O)OCCCP(=O)(O)O)CC6)CSc6ccccc6)c(S(=O)(=O)C(F)(F)F)c5)cc4)CC3)c2)c(-c2ccc(Cl)cc2)n1C(C)C
5. C#Cc1c(F)ccc2cc(O)cc(-c3ncc4c(N5CC6CCC(C5)N6)nc(OCC56CCCN5CC(F)C6)nc4c3F)c12 (stereo not given) + Cc1c(S(C)(=O)=O)c(-c2cc(F)cc(N3CCN(c4ccc(NS(=O)(=O)c5ccc(NC(CCN6CCC(C(=O)OCCCP(=O)(O)O)CC6)CSc6ccccc6)c(S(=O)(=O)C(F)(F)F)c5)cc4)CC3)c2)c(-c2ccc(Cl)cc2)n1C(C)C
6. CCN1CCN(Cc2ccc(Nc3ncc(F)c(-c4cc(F)c5nc(C)n(C(C)C)c5c4)n3)nc2)CC1 + Cc1c(S(C)(=O)=O)c(-c2cc(F)cc(N3CCN(c4ccc(NS(=O)(=O)c5ccc(NC(CCN6CCC(C(=O)OCCCP(=O)(O)O)CC6)CSc6ccccc6)c(S(=O)(=O)C(F)(F)F)c5)cc4)CC3)c2)c(-c2ccc(Cl)cc2)n1C(C)C

Outgoing:
39.4
73
59.6
59.8
73.6
66.5

Incoming: Supply viability, T/C value. Item: C=CC(=O)N1CCN(c2nc(=O)n(-c3c(C)ccnc3C(C)C)c3nc(-c4c(O)cccc4F)c(F)cc23)C(C)C1 (stereo not given) + Cc1c(S(C)(=O)=O)c(-c2cc(F)cc(N3CCN(c4ccc(NS(=O)(=O)c5ccc(NC(CCN6CCC(C(=O)OCCCP(=O)(O)O)CC6)CSc6ccccc6)c(S(=O)(=O)C(F)(F)F)c5)cc4)CC3)c2)c(-c2ccc(Cl)cc2)n1C(C)C
Outgoing: 40.9

----------
Tested on: 323965-272-R-J2-PDC complex spheroid growth, % test/control
ASSAY: Anticancer human tumor 323965-272-R-J2-PDC cell line growth inhibition [Asc];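 also: compound exposure lasted 7 days starting three days after spheroid seeding; 100% = DMSO vehicle control wells with viability set relative to vehicle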
MEASUREMENT CONDITIONS: second compound 0.949 µM; first compound 1 µM; active compounds read low
MEASUREMENT TYPE: viability, T/C (%)
Give bare numbers, in %.

{"COMPOUND": "O=C(c1ccc(F)c(F)c1Nc1ccc(I)cc1F)N1CC(O)([C@@H]2CCCCN2)C1 + CCN1C(C(=O)NC23CCC(C(=O)O)(CC2)CC3)C(c2cccc(Cl)c2F)C2(C(=O)Nc3cc(Cl)ccc32)C12CCCCC2", "READOUT NUMBER": 19.7}

Give viability, T/C for each listed item.
1. COc1c(OCCCN2CCOCC2)ccc2c3n(c(=NC(=O)c4cnc(N)nc4)nc12)CCN3 + CCN1C(C(=O)NC23CCC(C(=O)O)(CC2)CC3)C(c2cccc(Cl)c2F)C2(C(=O)Nc3cc(Cl)ccc32)C12CCCCC2
2. C#Cc1c(F)ccc2cc(O)cc(-c3ncc4c(N5CC6CCC(C5)N6)nc(OCC56CCCN5CC(F)C6)nc4c3F)c12 (stereo unspecified) + CCN1C(C(=O)NC23CCC(C(=O)O)(CC2)CC3)C(c2cccc(Cl)c2F)C2(C(=O)Nc3cc(Cl)ccc32)C12CCCCC2
3. C=CC(=O)N1CCN(c2nc(=O)n(-c3c(C)ccnc3C(C)C)c3nc(-c4c(O)cccc4F)c(F)cc23)C(C)C1 (stereo unspecified) + CCN1C(C(=O)NC23CCC(C(=O)O)(CC2)CC3)C(c2cccc(Cl)c2F)C2(C(=O)Nc3cc(Cl)ccc32)C12CCCCC2
4. C=C(F)C(=O)N1CCN(c2nc(OCC3CCCN3C)nc3c2CCN(c2cccc4cccc(Cl)c24)C3)CC1CC#N (stereo unspecified) + CCN1C(C(=O)NC23CCC(C(=O)O)(CC2)CC3)C(c2cccc(Cl)c2F)C2(C(=O)Nc3cc(Cl)ccc32)C12CCCCC2
5. O=C(c1cc(Cc2n[nH]c(=O)c3ccccc23)ccc1F)N1CCN(C(=O)C2CC2)CC1 + CCN1C(C(=O)NC23CCC(C(=O)O)(CC2)CC3)C(c2cccc(Cl)c2F)C2(C(=O)Nc3cc(Cl)ccc32)C12CCCCC2

Outgoing:
1. 30.1
2. 89.7
3. 69.8
4. 62.7
5. 95.4
